- System: MDA-MB-468 breast
- method description: NCI tumour cell line growth inhibition, 48 h
# Lookup of reported TGI keyed by entry
Respond numerically; units are µM and should not be typed.

| compound | target | TGI [µM] |
| --- | --- | --- |
| CC1=C(CCC(C)N(C)Cc2ccc(OCCCN3CCCC3)cc2)C(C)(C)CCC1 (centres undefined) | MDA-MB-468 breast | 5.75 |
| Nc1nc(-c2ccccc2)c(N=Nc2ccc(Cl)cc2Cl)s1 | MDA-MB-468 breast | 3.88 |
| COc1ccc(-c2cc(-c3ccccc3)nc(SCCCC(=O)NO)n2)cc1 | MDA-MB-468 breast | 4.52 |

Prompt: Requested read-out: TGI. Entry: CN(C)c1ccc(/C=C\c2cccc[n+]2C)cc1
Response: 5.76

Prompt: Entry O[C@H]1CO[C@H]2[C@@H]1OC[C@@H]2Oc1ccc(Nc2ccnc(Nc3ccc(O[C@H]4CO[C@H]5[C@@H]4OC[C@@H]5O)c(Cl)c3)n2)cc1Cl : reported TGI = ?
Response: 3.81

* * *

Readings of GI50 for the listed compounds
- System: MDA-MB-468 breast
- method description: NCI tumour cell line growth inhibition, 48 h

Prompt: For CC(CN1CCN(CCOCCO)CC1)CN1c2ccccc2Sc2ccc(Cl)cc21 (configuration not stated) , what is its reported GI50?
Response: 1690 nM

* * *

- System: MDA-MB-468 breast
- method description: NCI tumour cell line growth inhibition, 48 h
readout type: TGI (µM)
Kindly answer with a numeric value in µM, unit omitted.

Worked examples follow.
| compound | readout type | scale unit | result value |
| --- | --- | --- | --- |
| C=CC(=O)Nc1cccc(C)c1Nc1cc(-c2cccnc2Cc2c(C)c(OC)cc(OC)c2C)ncn1 | TGI | µM | 24.7 |
| Cc1cc(NCc2cc(Nc3ccnc4cc(Cl)ccc34)ccc2F)nc(N2CCCC2)n1 | TGI | µM | 3.07 |
| CC(CN1CCN(CCOCCO)CC1)CN1c2ccccc2Sc2ccc(Cl)cc21 (centres undefined) | TGI | µM | 4.14 |

Prompt: // TGI lookup, key: CC(C)NC(=O)c1cc(-c2ccc(NC(=O)Nc3ccc(N4CCN(C)CC4)c(C(F)(F)F)c3)cc2)nc2cccnc12
Response: 2.29

Prompt: Need TGI of C=CC(=O)N(C)[C@H]1C[C@H]2OC(C)(C1OC)n1c3ccccc3c3c4c(c5c6ccccc6n2c5c31)C(=O)NC4 (some centres undefined) , thanks.
Response: 0.235

Prompt: Looking for the measured TGI of COc1ccc(-c2n[nH]nc2-c2cc(OC)c3c(c2OC)OCO3)cc1 , can you help?
Response: 1.49

Prompt: Field request: TGI | item: CCCn1cnc2c(c1=N)C(c1ccc(Cl)cc1)c1sc3c(C)cccc3c1O2 (centres undefined)
Response: 3.9

Prompt: Item under review: C/C(=N\Nc1ccc2ccccc2n1)c1ccccn1 . Reported TGI?
Response: 0.705

* * *

Reported GI50 values are given for each entry in this list.
- System: HOP-92 NSCLC
- method description: NCI tumour cell line growth inhibition, 48 h

| smiles entry | GI50 |
| --- | --- |
| O=C(N/N=C/c1ccc(-c2ccc(O)cc2)o1)c1[nH]c2ccc(Br)cc2c1-c1ccccc1 | 2750 nM |
| CC[C@]12C=CCN3CC[C@@]4(c5ccc(OC)cc5N(C)[C@H]4[C@@](O)(C(=O)OC)[C@@H]1OC(=O)CCCC[P+](c1ccc(C)cc1)(c1ccc(C)cc1)c1ccc(C)cc1)[C@@H]32 | 295 nM |
| CC(C)NC(=O)c1cc(-c2ccc(NC(=O)Nc3ccc(N4CCN(C)CC4)c(C(F)(F)F)c3)cc2)nc2cccnc12 | 980 nM |

Prompt: Fill in: GI50 of Nc1nc(-c2ccccc2)c(N=Nc2ccc(Cl)cc2Cl)s1 is ___
Response: 1850 nM
